Every entry's value here was drawn from the RNAGym collection of RNA variant scans (doi:10.1073/pnas.2313332121).

B1: TPR t1 (parent)
chain: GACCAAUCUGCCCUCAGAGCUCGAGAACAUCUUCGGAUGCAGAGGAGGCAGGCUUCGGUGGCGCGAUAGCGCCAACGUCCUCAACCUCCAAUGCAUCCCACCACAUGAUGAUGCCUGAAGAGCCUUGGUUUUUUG

variants of: B1; experiment: polymerase ribozyme fitness, log enrichment relative to wild type (log ratio); higher = more active; in vitro selection for triplet polymerase activity
Values of polymerase ribozyme fitness (log ratio) greater than or equal to -3 map to fulfilled; values below map to not fulfilled.

Some solved cases for reference:
{"Primary Sequence": "GACCAAUCUGCCCUCAGAGCUCGAGAACAUCUUCGGAUGCAGAGGAGGCAGGCUUCGGUGGCGAGCUAGCGCCAACGUCCUCAACCUCCAAUGCAUCCCACCAAAUGAUGAUGCCUGAAGAGCCUUGGUUUUUUG [C64A A66C C104A]", "Assigned Label": "not fulfilled"}
{"Primary Sequence": "GACCAAACUGCCCUCAGAGCUCGAGAACAUCUUCGGAUGCAGAGGAGGCAGGCUUCGGUGGCGCGAUAGCGCCAACGUCCUCAACCUCCAAUGCAUCCCACCUCAUGAUGAUGCCUGAAGAGCCUUGGUUUUUUG [U7A A103U]", "Assigned Label": "not fulfilled"}
{"Primary Sequence": "GACCAAUUUGCCCUCAGAGCUCGAGAACAUCUUCGGAUGGAGAGGAGGCAGGCUUCGGUGGCUCGAUAGCGCCAACGUCCUCAACCUCCAAUGCAUCCCGCCACAUGAUGAUGCCUGAAGAGCCUUGGUUUUUUG [C8U C40G G63U A100G]", "Assigned Label": "not fulfilled"}
{"Primary Sequence": "GACCAAUCUGCCCUCAGAGCUCGAGAACAUCUUCGGAUGCAGAGGAGGCAGGCUUCGGUGGCGCGAUAGCGCCAACGUCCUCAACUUCCAAUGCAUCCCACCACAUGAUGAUACCUGAAGAGCCUUCGUUUUUUG [C86U G113A G127C]", "Assigned Label": "fulfilled"}
{"Primary Sequence": "GACCAAUCUGCCCUCAGAGCUCGAGAACAUCUUCGGAUGCAGAUGAGGCAGGCUUGGGUGGCGCGAUAGCGCCAACGUCCUCAACCUCCAAAGCAUCCCACCACAUGAUGAUGCAUGAAGAGCCUUGGUUUUUUG [G44U C56G U92A C115A]", "Assigned Label": "not fulfilled"}
{"Primary Sequence": "GACCAAUCUGCCCUCAGAGCUCGAGGACAUCUUCGGAUGCAGAGGAGGCAGGCUUCGGUGGCGCGAUAGCGCCAACGUCCUCAACCUCGAAUGCAUCCCACUACAUGAUGAAGCCUGAAAAGCCUUGGUUUUUUG [A26G C89G C102U U112A G120A]", "Assigned Label": "not fulfilled"}
{"Primary Sequence": "GACCAAUCUGCCCUCAGAGUUCGAGAACAUCUUCGGAUGCAGAGGAGGCAGGCUUCGGUGGCGCGAUAGCGUCAACGUCCUUAACCUCCAAUGCAUCCCACCACAUGAUGAUGCAUGAAGAGCCUUGGUUUUUUG [C20U C72U C82U C115A]", "Assigned Label": "fulfilled"}
{"Primary Sequence": "GACCAAUCUGGCCUCAGAGCUCGAGAACAUCUUCGGAUGCAGAGGAGACAGGCUUCGGUGGCGCGAUAGCGCCAACGUCCUCAACCUCCAAUGCAUCCCACCACAUGAUGAUGCCUGAAGAGCCUUGGUUUUUUG [C11G G48A]", "Assigned Label": "fulfilled"}
{"Primary Sequence": "GACCAAUCUGCCGUCAGAGCUCGAGAAGAUCUUCGGAUGCACAGGAGGCAGGCUUCGGUGGCGCGAUAGCGCCAACGUCCUCAACCUCCAAUGCAUCCCACCACAUGAUGAUGCCUGAAGAGCCUUGGUUUUUUG [C13G C28G G42C]", "Assigned Label": "not fulfilled"}
{"Primary Sequence": "GACCAAUCUGCCCUCAGAGCUCGAGAACAUCUUCGGAAGCAGAGGAGGUAGGCUUCGGUGGCGCGAUAGCGCCAACGUCCUCAACCUUCAAUGCAUCCCACCACAUGAUGAUGCCUGAAGAGCCUUGGUUUUUUG [U38A C49U C88U]", "Assigned Label": "fulfilled"}

Qu. Check the entry GACCAAUCUGCCCUCAGAGCUCGAGAACAUCUUCGGAUACAGAGGAGGCAGGCUUCGGUGGCGCGAUAGCGCUAACGUCCUCAACCUCCAAUGCAUCCCACCACAAGACGAUACCUAAAGAGCCUUGGUUUUUUG [G39A C73U U106A U109C G113A G117A] : does polymerase ribozyme fitness (log ratio) equal or exceed -3?
Ans. not fulfilled

Qu. # check: polymerase ribozyme fitness (log ratio) of GACCAAUCUGCCCUCAGAGCUCGAGAACAUCUUCGGAUGCAGACGAGGCAGGCUUCGGUGGCGCGAUAGCGCCAAUGACCUCAACCUCCAAUGCAUCCCACCACAUGAUGAUGCCUGAAGAGCCUUGGUUUUUUG [G44C C76U U78A] is greater than or equal to -3
Ans. fulfilled

Qu. Confirm if polymerase ribozyme fitness (log ratio) reported for the variant GACCAAUCUGCCCUCAGAGCUCGAGAACAUCUUCGGAUGCAGAGGAGGCAGGCUUUGGUGGCGCGAUAGCGCCAACGUCCUCAACCUUCAAUGCAUCCCACCACAUGAUGAUGACUGAAAAGCCUUGGUUUUUUG [C56U C88U C114A G120A] is -3 or above.
Ans. fulfilled

Qu. Given GACCAAUCUGCCCUCAGAGCUCGAGAACAUCUUCGGAUGCAGAGGAGGCAGGCUUCGGUGGCGCGAUAGCGCUAACGCCCUCAACCUCCAAGGCAUCCCACCACAUGAUGAUGCCUGAAGAGCCUUGGUUUUUUG [C73U U78C U92G] , state whether its polymerase ribozyme fitness (log ratio) is at least -3.
Ans. fulfilled

Qu. For this variant, is measured polymerase ribozyme fitness (log ratio) -3 or higher? GACCAAUCUGCCCUCAGAGCUCGAGAACAUCUUCGGAUGCAGUGGAGGCAGGCUUGGGUGGCGCGAUAGCUCCAACGUCCUCAACCUCCAAUGCAUCCCACCACAUGAUGAUGCCUGAAAAGCCUUGGUUUUUUG [A43U C56G G71U G120A]
Ans. not fulfilled

Qu. Quick check, polymerase ribozyme fitness (log ratio) >= -3? GACCAAUCUGCCCUCAGAGCUCGAGAACAUCUUCGGAUGUAGAGGAGGCAGGCUUCGGUGGCGCGAUAGCGCCAACGUCCUCAACCUCCAAUGCAUCCCAUCACAUGAUGAUGCCUGAAGAGCCUUGGUUUUUUG [C40U C101U]
Ans. fulfilled

Qu. Confirm if polymerase ribozyme fitness (log ratio) reported for the variant GACCAAUGUGCCCUCAGUGCUCGAGAACAUCUUCGGAUGCAGAGGAGGCAGGCUUCGGUGGCGCGAUAGCGCCAACGUCCUCAACCUCCAAUGCAUCCCACCACAUGAUGGUGCCUGAAGAGCCUUGAUUUCUUG [C8G A18U A111G G128A U132C] is -3 or above.
Ans. fulfilled

Qu. Hello, I need to know if GACCAAUCUGCCCUCAGAGCUCGAGAACAUCUUCGGAUGGAGAGGAGGCAGGCUUCGGUGGCGCGAUAGCGCCAACGUCCUCAACCUCCAAUGCAUCCCACCACAUGAUGAUACCUGAAGAGCCUUGGUUUUUUG [C40G G113A] has measured polymerase ribozyme fitness (log ratio) not below -3. Thanks!
Ans. fulfilled
